target: UBE2F (Homo sapiens); construct: recombinant, pET-28a with His-SUMO tag cleaved by Ulp1 (un-tagged), expressed in E. coli Rosetta 2(DE3) pLysS; assay: E2 NEDD8 thioester assay, iFluor 680-NEDD8, SDS-PAGE fluorescence scan
Sequence (Q969M7 whole entry): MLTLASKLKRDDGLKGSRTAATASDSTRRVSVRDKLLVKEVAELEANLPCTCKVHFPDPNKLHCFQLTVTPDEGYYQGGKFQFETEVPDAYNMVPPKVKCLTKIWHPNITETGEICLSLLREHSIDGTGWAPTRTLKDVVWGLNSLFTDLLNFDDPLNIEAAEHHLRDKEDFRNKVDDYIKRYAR

smiles	IC50
Cc1ccc(C(=O)N2CCN(c3ccc(NC(=O)/C=C/c4c[nH]c5ncccc45)cc3)CC2)cc1	~49 µM
